Listed here are compounds together with their documented inhibition.
Target: Ectonucleotide pyrophosphatase/phosphodiesterase family member 1 (Homo sapiens)
Sequence (whole entry): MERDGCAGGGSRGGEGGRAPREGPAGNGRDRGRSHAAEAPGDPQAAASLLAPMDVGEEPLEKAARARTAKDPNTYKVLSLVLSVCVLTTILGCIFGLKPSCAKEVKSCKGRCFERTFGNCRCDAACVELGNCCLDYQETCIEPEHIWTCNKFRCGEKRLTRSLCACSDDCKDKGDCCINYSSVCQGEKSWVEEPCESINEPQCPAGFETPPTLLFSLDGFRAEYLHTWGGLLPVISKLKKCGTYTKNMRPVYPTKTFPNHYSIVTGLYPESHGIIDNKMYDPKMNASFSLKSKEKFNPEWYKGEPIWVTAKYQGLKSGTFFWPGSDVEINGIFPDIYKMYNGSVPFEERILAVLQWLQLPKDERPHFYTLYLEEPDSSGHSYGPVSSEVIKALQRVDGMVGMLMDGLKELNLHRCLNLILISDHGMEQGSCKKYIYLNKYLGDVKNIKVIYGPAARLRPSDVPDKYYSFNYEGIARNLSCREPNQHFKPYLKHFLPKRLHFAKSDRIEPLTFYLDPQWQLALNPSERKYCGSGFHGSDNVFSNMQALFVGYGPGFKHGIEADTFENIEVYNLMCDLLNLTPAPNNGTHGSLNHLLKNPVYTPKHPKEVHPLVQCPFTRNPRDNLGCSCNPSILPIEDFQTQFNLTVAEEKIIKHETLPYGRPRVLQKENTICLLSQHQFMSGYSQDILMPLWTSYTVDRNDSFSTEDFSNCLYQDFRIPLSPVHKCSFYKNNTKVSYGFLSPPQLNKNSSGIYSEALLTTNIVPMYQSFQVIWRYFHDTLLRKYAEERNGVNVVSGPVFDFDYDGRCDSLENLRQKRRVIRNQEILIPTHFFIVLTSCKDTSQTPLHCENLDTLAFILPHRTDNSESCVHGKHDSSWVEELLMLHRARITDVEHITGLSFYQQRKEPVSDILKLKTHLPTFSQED
Assay: Inhibition of human NPP1 expressed in COS7 cells assessed as production of p-nitrophenol using pnp-TMP as the substrate preincubated at 100 uM for 3 mins before substrate addition measured after 15 mins […]
Type: cell-based
Conditions: COS-7
Answer format: numeric, % implied, no suffix.

// known answers, use as guide
{"structure-smiles": "B[P@@](=O)(OC[C@H]1O[C@@H](n2cnc3c(N)ncnc32)[C@H](O)[C@@H]1O)OP(=O)(O)C(Cl)(Cl)P(=O)(O)O", "measurement-units": "%", "inhibition": 90}
{"structure-smiles": "B[P@](=O)(OC[C@H]1O[C@@H](n2cnc3c(N)nc(SC)nc32)[C@H](O)[C@@H]1O)OP(=O)(O)CP(=O)(O)O", "measurement-units": "%", "inhibition": 80}
{"structure-smiles": "B[P@](=O)(OC[C@H]1O[C@@H](n2cnc3c(N)ncnc32)[C@H](O)[C@@H]1O)OP(=O)(O)CP(=O)(O)O", "measurement-units": "%", "inhibition": 80}
{"structure-smiles": "B[P@](=O)(OC[C@H]1O[C@@H](n2cnc3c(N)ncnc32)[C@H](O)[C@@H]1O)OP(=O)(O)C(Cl)(Cl)P(=O)(O)O", "measurement-units": "%", "inhibition": 90}
{"structure-smiles": "B[P@](=O)(OC[C@H]1O[C@@H](n2cnc3c(N)nc(SC)nc32)[C@H](O)[C@@H]1O)OP(=O)(O)C(F)(F)P(=O)(O)O", "measurement-units": "%", "inhibition": 90}

Ask: Please look up its inhibition: `CSc1nc(N)c2ncn([C@@H]3O[C@H](COP(=O)(O)OP(=O)(O)CP(=O)(O)O)[C@@H](O)[C@H]3O)c2n1`
Result: 66
